Field: selectivity ratio. Provide a value for each of the compounds that follow.
Experiment: Selectivity index, ratio of CC50 for cytotoxicity against mouse cortical neurons to EC50 for antiviral activity against Venezuelan equine encephalitis virus TC-83 infected in mouse cortical neurons
Assay type: toxicity
Details: read-out: Ratio CC50/EC50

Per the records, this compound ( CC1=CC(C)(C)Nc2c(C(=O)N[C@@H](C)/C=C/S(C)(=O)=O)cccc21 ) has selectivity ratio equal to > 9.7

Record summary for CC1=CC(C)(C)Nc2c(C(=O)NC/C=C/S(C)(=O)=O)cccc21 : reported selectivity ratio = > 4

Record C[C@@H]1CC(C)(C)Nc2c(C(=O)NC/C=C/S(C)(=O)=O)cccc21 , field selectivity ratio: 6

###

Assay: Selectivity index, ratio of CC50 for cytotoxicity against african green monkey Vero cells to EC50 for antiviral activity against Venezuelan equine encephalitis virus Trinidad infected in Vero cells
Type: toxicity, cell-based
Conditions: read-out: Ratio CC50/EC50
parameter-measured: selectivity ratio
No unit in the answer, only the number.

Reported selectivity ratio for CC1=CC(C)(C)Nc2c(C(=O)NC/C=C/S(C)(=O)=O)cccc21 was 7

###

Assay: Cytotoxicity against mouse N2a cells
Type: cell-based
Would you mind telling me the reported CC50 of each entry?

Per the records, this compound ( C[C@@H]1CC(C)(C)Nc2c(C(=O)N[C@H](/C=C/S(C)(=O)=O)Cc3ccccc3)cccc21 ) has CC50 equal to > 50 µM

Measured CC50 of C[C@@H]1CC(C)(C)Nc2c(C(=O)NC/C=C/S(C)(=O)=O)cccc21 : > 25 µM

Entry under test: C[C@@H]1CC(C)(C)Nc2c(C(=O)N[C@@H](C)/C=C/S(C)(=O)=O)cccc21 . Its CC50 was > 25 µM

So for CC1=CC(C)(C)Nc2c(C(=O)NC/C=C/S(C)(=O)=O)cccc21 , the logged CC50 turned out to be 27 µM

Lab note: measured CC50 of O=C(N[C@H](/C=C/S(=O)(=O)c1ccccc1)Cc1ccccc1)c1cccc2cccnc12 was 46 µM

Kindly note the recorded CC50 for COC(=O)/C=C/CNC(=O)c1cccc2c1NC(C)(C)C[C@H]2C , which is > 25 µM

Record CN1CCN(C)/C(=N\c2ccc([N+](=O)[O-])cc2C(=O)Nc2ccccc2)C1 . Reported CC50: > 2.5 µM

Kindly note the recorded CC50 for COC(=O)/C=C/CNC(=O)c1c[nH]c2ccc(Br)cc12 , which is > 25 µM

Entry CC1=CC(C)(C)Nc2c(C(=O)N[C@H](/C=C/S(C)(=O)=O)Cc3ccccc3)cccc21 ; CC50 = > 50 µM

What the record says about CC1=CC(C)(C)Nc2c(C(=O)N[C@@H](C)/C=C/S(C)(=O)=O)cccc21 : CC50 is > 25 µM

###

Test: Cytotoxicity against mouse cortical neurons
Assay type: cell-based, Cortical neurone
parameter-measured: CC50

So, CC1=CC(C)(C)Nc2c(C(=O)NC/C=C/S(C)(=O)=O)cccc21 ? Its CC50 was > 25 µM

molecule CC1=CC(C)(C)Nc2c(C(=O)N[C@@H](C)/C=C/S(C)(=O)=O)cccc21 , CC50 observed: > 25 µM

Sure, the documented CC50 for C[C@@H]1CC(C)(C)Nc2c(C(=O)NC/C=C/S(C)(=O)=O)cccc21 is 48 µM

###

Assignment: determine reported selectivity ratio for the given compounds.
Assay: Selectivity index, ratio of CC50 for cytotoxicity against mouse Neuro-2a cells to EC50 for antiviral activity against Venezuelan equine encephalitis virus TC-83 infected in mouse Neuro-2a cells
Assay type: toxicity, cell-based
Conditions: read-out: Ratio CC50/EC50

// recorded selectivity ratio for O=C(N[C@H](/C=C/S(=O)(=O)c1ccccc1)Cc1ccccc1)c1cccc2cccnc12 : > 2

The compound C[C@@H]1CC(C)(C)Nc2c(C(=O)N[C@@H](C)/C=C/S(C)(=O)=O)cccc21 showed selectivity ratio equal to > 7

Lab note: measured selectivity ratio of COC(=O)/C=C/CNC(=O)c1cccc2c1NC(C)(C)C[C@H]2C was > 1

// recorded selectivity ratio for COC(=O)/C=C/CNC(=O)c1c[nH]c2ccc(Br)cc12 : > 2

The reported value for CC1=CC(C)(C)Nc2c(C(=O)N[C@H](/C=C/S(C)(=O)=O)Cc3ccccc3)cccc21 in terms of selectivity ratio is > 4

###

Test: Selectivity index, ratio of CC50 for cytotoxicity against human BE(2)-M17 cells to EC50 for antiviral activity against Venezuelan equine encephalitis virus TC-83 infected in human BE(2)-M17 cells
Format: toxicity, cell-based
Details: read-out: Ratio CC50/EC50
Answer each item with its documented selectivity ratio.

For record O=C(N[C@H](/C=C/S(=O)(=O)c1ccccc1)Cc1ccccc1)c1cccc2cccnc12 the listed selectivity ratio is 1

Recorded result, CC1=CC(C)(C)Nc2c(C(=O)NC/C=C/S(C)(=O)=O)cccc21 , selectivity ratio: > 9

Notebook: C[C@@H]1CC(C)(C)Nc2c(C(=O)N[C@@H](C)/C=C/S(C)(=O)=O)cccc21 , selectivity ratio read as > 7.5

The recorded selectivity ratio for entry C[C@@H]1CC(C)(C)Nc2c(C(=O)NC/C=C/S(C)(=O)=O)cccc21 equals > 18

Entry CN1CCN(C)/C(=N\c2ccc([N+](=O)[O-])cc2C(=O)Nc2ccccc2)C1 , selectivity ratio reported as > 250

The compound CC1=CC(C)(C)Nc2c(C(=O)N[C@@H](C)/C=C/S(C)(=O)=O)cccc21 showed selectivity ratio equal to > 5

Entry COC(=O)/C=C/CNC(=O)c1cccc2c1NC(C)(C)C=C2C ; selectivity ratio = 1.5

Field selectivity ratio (entry CC1=CC(C)(C)Nc2c(C(=O)N[C@H](/C=C/S(C)(=O)=O)Cc3ccccc3)cccc21 ) reads > 2

Record C[C@@H]1CC(C)(C)Nc2c(C(=O)N[C@H](/C=C/S(C)(=O)=O)Cc3ccccc3)cccc21 , field selectivity ratio: > 5.4

The compound COC(=O)/C=C/CNC(=O)c1c[nH]c2ccc(Br)cc12 showed selectivity ratio equal to 4

###

Experiment: Selectivity ratio of CC50 for cytotoxicity against green monkey VeroE6 cells to EC50 for antiviral activity against Venezuelan equine encephalitis virus IC-SH3 infected in VeroE6 cells
Format: toxicity, cell-based
Details: read-out: Ratio CC50/EC50
Field: selectivity ratio. Provide a value for each of the compounds that follow.

Lookup result for COC(=O)/C=C/CNC(=O)c1cccc2c1NC(C)(C)C[C@H]2C ; measured selectivity ratio: > 4

selectivity ratio reported for this compound COC(=O)/C=C/CNC(=O)c1cc(C)cc2c1NC(C)(C)C=C2C : > 3.5

Form: compound = COC(=O)/C=C/CNC(=O)c1cccc2c1NC(C)(C)C=C2C ; selectivity ratio = > 5

###

Record form. Attribute: selectivity ratio. Fill in for each entry.
Test: Selectivity index, ratio of CC50 for cytotoxicity against human HeLa cells to EC50 for antiviral activity against Venezuelan equine encephalitis virus Trinidad infected in HeLa cells
Type: toxicity, cell-based
Conditions: read-out: Ratio CC50/EC50

The molecule CC1=CC(C)(C)Nc2c(C(=O)NC/C=C/S(C)(=O)=O)cccc21 showed selectivity ratio equal to > 22

Kindly note the recorded selectivity ratio for C[C@@H]1CC(C)(C)Nc2c(C(=O)NC/C=C/S(C)(=O)=O)cccc21 , which is > 19

###

Assay: Cytotoxicity against green monkey Vero cells
Format: cell-based
Settings: chlorocebus sabaeus
Kindly supply the reported CC50 values for the records listed here.
Just the number in µM, nothing appended.

Sure, the documented CC50 for CC1=CC(C)(C)Nc2c(C(=O)NC/C=C/S(C)(=O)=O)cccc21 is 30

CC50 in this record for C[C@@H]1CC(C)(C)Nc2c(C(=O)NC/C=C/S(C)(=O)=O)cccc21 : 30

###

Test system: Venezuelan equine encephalitis virus
Assay: Antiviral activity against Venezuelan equine encephalitis virus IC-SH3 infected in VeroE6 cells pretreated with compound for 2 hrs followed by viral infection at MOI of 0.01 and measured after 20 hrs by immunostaining based confocal microscopic analysis
Type: functional, organism-based
Conditions: IC-SH3, Vero C1008
pEC50: −log10 of the molar value.
parameter-measured: pEC50

Value of measured pEC50 for the entry COC(=O)/C=C/CNC(=O)c1cccc2c1NCCC2 : < 4.52

Noted for COC(=O)CCCNC(=O)c1cccc2c1NC(C)(C)C[C@H]2C : its pEC50 reads < 4.52

pEC50 for COC(=O)/C=C/CNC(=O)c1cc(C)cc2c1NC(C)(C)C=C2C is 5.07

Value of pEC50 reported for the molecule COC(=O)CCCNC(=O)c1cc(C)cc2c1NC(C)(C)C=C2C is < 4.52

Recorded result, COC(=O)CCCNC(=O)c1cccc2c1NC(C)(C)C=C2C , pEC50: < 4.52

# pEC50 of COC(=O)/C=C/CNC(=O)c1cccc2c1NC(C)(C)C=C2C = 5.19

Entry under test: COC(=O)CCCNC(=O)c1cccc2c1NCCC2 . Its pEC50 was < 4.52

Looking up COC(=O)/C=C/CNC(=O)c1cccc2c1NC(C)(C)C[C@H]2C , I found its pEC50 recorded as 5.09
